TESTED_SYSTEM: T1, Human v6-peptide (human, N-terminal biotin)
T1 construct: Bachem #4108947, 43 amino acids, synthetic; also called Hm v6-peptide; hm v6-peptide
T1 peptide: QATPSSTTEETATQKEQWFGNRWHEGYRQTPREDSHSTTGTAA
EXPERIMENT_SUMMARY: SPR SCK, antibody immobilised, peptide injected
pKd: −log10 of the molar value.

BINDER: AL-MN114-444 IgG1 LALA IAHA (antibody, V domains shown, Human IgG1 LALA IAHA, kappa) VH: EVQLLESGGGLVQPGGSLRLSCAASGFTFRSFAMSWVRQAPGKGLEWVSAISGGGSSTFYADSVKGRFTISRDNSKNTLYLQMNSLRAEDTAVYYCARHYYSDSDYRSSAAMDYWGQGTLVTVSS VL: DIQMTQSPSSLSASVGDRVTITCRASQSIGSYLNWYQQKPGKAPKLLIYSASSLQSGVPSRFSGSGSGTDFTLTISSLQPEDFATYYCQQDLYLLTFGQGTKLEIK
pKd: 7.92

BINDER: AL-MN114-71 IgG1 LALA IAHA (antibody, V domains shown, Human IgG1 LALA IAHA, kappa) VH: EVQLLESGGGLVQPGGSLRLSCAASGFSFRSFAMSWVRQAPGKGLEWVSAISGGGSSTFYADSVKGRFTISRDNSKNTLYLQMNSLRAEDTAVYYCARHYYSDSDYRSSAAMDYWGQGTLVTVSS VL: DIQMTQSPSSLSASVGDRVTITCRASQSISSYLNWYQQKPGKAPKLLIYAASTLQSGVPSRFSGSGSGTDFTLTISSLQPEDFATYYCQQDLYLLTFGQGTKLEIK
pKd: 7.77

BINDER: AL-MN114-465 IgG1 LALA IAHA (antibody, V domains shown, Human IgG1 LALA IAHA, kappa) VH: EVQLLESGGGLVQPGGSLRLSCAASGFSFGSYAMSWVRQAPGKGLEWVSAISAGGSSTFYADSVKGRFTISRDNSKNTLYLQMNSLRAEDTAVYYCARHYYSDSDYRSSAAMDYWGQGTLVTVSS VL: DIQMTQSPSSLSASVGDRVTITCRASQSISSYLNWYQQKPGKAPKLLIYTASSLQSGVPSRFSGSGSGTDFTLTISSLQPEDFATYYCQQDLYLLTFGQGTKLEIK
pKd: 7.85

BINDER: AL-MN114-132 IgG1 LALA IAHA (antibody, V domains shown, Human IgG1 LALA IAHA, kappa) VH: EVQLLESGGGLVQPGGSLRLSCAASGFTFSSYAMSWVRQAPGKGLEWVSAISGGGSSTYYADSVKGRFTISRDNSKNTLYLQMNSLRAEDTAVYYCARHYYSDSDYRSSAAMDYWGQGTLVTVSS VL: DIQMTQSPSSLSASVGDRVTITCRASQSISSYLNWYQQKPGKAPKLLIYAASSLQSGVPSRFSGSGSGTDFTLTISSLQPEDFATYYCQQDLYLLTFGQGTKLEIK
pKd: 7.66
